Below is a list of entries, each paired with its recorded EC50 value.
subject_of_test: T1, revertant virus (AD169 CMV with the pentameric gH complex restored)
T1 construct: also called revertant virion; revertant virions
protocol_description: antibody-titration EIA, coated revertant virions

binder | u | EC50
58.5 (antibody, V domains shown, rabbit hybridoma mAb (not the humanized version); also called clone 58.5) VH: QSLEESGGRLVTPGGSLTLTCTVSGFSLSAYSVSWVRQAPGKGLEWIGIIGHSGNTYYASWAKGRFTISKTSTTVDLKITSLTTEDTATYFCAREDYRYGDYGYYWDFNFWGPGTLVTISS VL: ELDLTQTASPVSAPVGGTVTINCQASQNIYSNLAWYQQKPGQPPKLLIYGASTLASGVSSRFKGSRSGTEFTLTISDLECADAATYYCQSYVYSSSTADTFGGGTEVVVK | µg/mL | 0.59
350.1 (antibody, V domains shown, rabbit hybridoma mAb; also called clone 350.1; mAb 350.1) VH: QSLEESGGDLVKPGASLTLTCTASGFSFSNSYYMCWVRQAPGKGLEWIVCIYAGSSGFTYYANWAKGRFTVSKTSSTTVTLQMTSLTAADTATYFCARDRGYYTYGYAGYGYGMDLWGPGTLVTISS VL: ELDMTQTPSPVSTAVGGTVSISCQSGQNVWTNDYLSWYQQKPGQPPKLLIYRASTLASGVPSRFKGSGSGTQFTLTISDVQCDDAATYYCGGTFLSNGDNGFGGGTEVVVK | µg/mL | 0.02
210.4 (antibody, V domains shown, rabbit hybridoma mAb; also called clone 210.4) VH: QSVEESGGRLVTPGTPLTLTCTVSGFSLSTNAMSWVRQAPGKGLEWIGYIWSGGSTYYASWAKGRFAISKTSTTVDLKITSPTTEDTATYFCAKNGDNGQLDLWGQGTLVTVSS VL: ELVLTQTPSPVSAAVGGTVTINCQTSQSLYNNNFLSWYQQKPGQPPKLLIYKASTLESGVPSRFKGSGSGTQFTLTISGVQCDDAATYYCQGEFSCSSADCNAFGGGTEVVVK | µg/mL | 0.03
57.4 (antibody, V domains shown, rabbit hybridoma mAb (not the humanized version); also called clone 57.4; mAb 57.4) VH: QSLEESGGGLVKPGGTLTLTCTASGFSFSSVYDMSWVRQAPGKGLEWIASIVTGSRTTWYASWAKGRFTVSKTSSTTVTLQMTSLTAADTATYFCARGEYGHDGYVDGTMGLGLWGPGTLVTISS VL: ELDLTQTPASVEAAVGGTVAIKCQASQSIRRHLSWYQQKPGQRPKLLIYGASNLASGVSSRFKGSGSGTEFTLTISDLECADAATYYCQCTYGVGFSSTYGDAFGGGTELEIL | µg/mL | 0.09
324.4 (antibody, V domains shown, rabbit hybridoma mAb; also called clone 324.4) VH: QSVKESEGRLVTPGTPLTLTCTVSGFSPSSYNMGWVRQAPGEGLEWIGYISTSGNTFYASWAKGRFTISKTSTTVDLRITSPTTEDTATYFCARGSYVAYNAWDLWGPGTLVTISS VL: ELDLTQTASPVSAAVGGTVTINCQSSQSVYNNNYLSWYQQKPGQPPKLLIYGASTLASGVPSRFKGSGSGTQFTLTISEVQCDDAATYYCQGYYSGYIYAFGGGTEVVVK | µg/mL | 4.09
276.10 (antibody, V domains shown, rabbit hybridoma mAb (not the humanized version); also called clone 276.10) VH: QSLEESGGDLVQPEGSLTLTCTASGFSFSGSYYMCWVRQAPGTGLEWIACIDGDLSGSAYYANWAKGRFTISGTSSTTVTLQVTSLTAADTATYFCAREGPVGVGSIYLGFDLWGPGTLVTISS VL: ELDLTQTPASVEVPVGGTVTIKCQASHNINTYLSWYQQKPGQPPKLLIYRASDLASGVSSRFSGSGSGTQFTLTISGVECADAATYYCQQGFNSLNVENVFGGGTEVVVK | µg/mL | 0.25
316.2 (antibody, V domains shown, rabbit hybridoma mAb; also called clone 316.2) VH: QSVKESEGRLVTPGTPLTLTCTASGFSLSSYHMIWVRQAPGKGLEWIGYINNNDNPYYATWAKGRFTISRTSTTVALKITSPTTKDTATYFCARAAGNYYVGALNLWGPGTLVTISS VL: ELVLTQTPASVEVAVGGTVTIKCQASQTIGNLLGWYQQKPGRPPKLLIYDASTLASGVPSRFKGSGSATEFTLTIRGVQCDDAATYYCQQGYMITNVENAFGGGTEVVVK | µg/mL | 1.06
270.7 (antibody, V domains shown, rabbit hybridoma mAb; also called clone 270.7) VH: QSVEESGGRLVTPGTPLALTCTASRFSLSSNHMIWVRQAPGKGLEWIGYINYNNNPYYATWAKGRFTISRTSTTVALKITSPTTEDTATYFCARAAGNYYVGALNLWGPGTLVTISS VL: ELVMTQTPASVEVAVGGTVTIKCQASQSIGNLLAWYQQEPGQRPKLLIYDASTLASGVPSRFKGSGSGTEFTLTISGVQCADAATYYCQQGYMITNVENAFGGGTNVEIK | µg/mL | 0.68
70.7 (antibody, V domains shown, rabbit hybridoma mAb; also called clone 70.7) VH: QSVEESRGRLVTPGTPLTLTCTASGFSLSSYHMIWVRQAPGKGLEWIGYINYNNNPYYATWAKGRFTISRTSTTVALKITSPTTEDSATYFCARAAGNYYVGALNLWGPGTLVTISS VL: ERDMTQTPASVEVAVGGTVTIKCQASQSIGNLLAWYQQKPGQRPKLLIYDASTLASGVPSRFKGSGSGTEFTLTISGVQCADAATYYCQQGYMITNVENAFGGGTEVVVK | µg/mL | 1.46
